target: Gag-Pol polyprotein (Human immunodeficiency virus type 2 subtype A (isolate ROD)) (UniProt P04584); assay: Ribonuclease H inhibitors of HIV-2 reverse transcriptase, biochemical dose response (AID 367); conditions: HIV-2 RNase H, FRET RNA/DNA substrate cleavage
Sequence (P04584 whole entry, looked up): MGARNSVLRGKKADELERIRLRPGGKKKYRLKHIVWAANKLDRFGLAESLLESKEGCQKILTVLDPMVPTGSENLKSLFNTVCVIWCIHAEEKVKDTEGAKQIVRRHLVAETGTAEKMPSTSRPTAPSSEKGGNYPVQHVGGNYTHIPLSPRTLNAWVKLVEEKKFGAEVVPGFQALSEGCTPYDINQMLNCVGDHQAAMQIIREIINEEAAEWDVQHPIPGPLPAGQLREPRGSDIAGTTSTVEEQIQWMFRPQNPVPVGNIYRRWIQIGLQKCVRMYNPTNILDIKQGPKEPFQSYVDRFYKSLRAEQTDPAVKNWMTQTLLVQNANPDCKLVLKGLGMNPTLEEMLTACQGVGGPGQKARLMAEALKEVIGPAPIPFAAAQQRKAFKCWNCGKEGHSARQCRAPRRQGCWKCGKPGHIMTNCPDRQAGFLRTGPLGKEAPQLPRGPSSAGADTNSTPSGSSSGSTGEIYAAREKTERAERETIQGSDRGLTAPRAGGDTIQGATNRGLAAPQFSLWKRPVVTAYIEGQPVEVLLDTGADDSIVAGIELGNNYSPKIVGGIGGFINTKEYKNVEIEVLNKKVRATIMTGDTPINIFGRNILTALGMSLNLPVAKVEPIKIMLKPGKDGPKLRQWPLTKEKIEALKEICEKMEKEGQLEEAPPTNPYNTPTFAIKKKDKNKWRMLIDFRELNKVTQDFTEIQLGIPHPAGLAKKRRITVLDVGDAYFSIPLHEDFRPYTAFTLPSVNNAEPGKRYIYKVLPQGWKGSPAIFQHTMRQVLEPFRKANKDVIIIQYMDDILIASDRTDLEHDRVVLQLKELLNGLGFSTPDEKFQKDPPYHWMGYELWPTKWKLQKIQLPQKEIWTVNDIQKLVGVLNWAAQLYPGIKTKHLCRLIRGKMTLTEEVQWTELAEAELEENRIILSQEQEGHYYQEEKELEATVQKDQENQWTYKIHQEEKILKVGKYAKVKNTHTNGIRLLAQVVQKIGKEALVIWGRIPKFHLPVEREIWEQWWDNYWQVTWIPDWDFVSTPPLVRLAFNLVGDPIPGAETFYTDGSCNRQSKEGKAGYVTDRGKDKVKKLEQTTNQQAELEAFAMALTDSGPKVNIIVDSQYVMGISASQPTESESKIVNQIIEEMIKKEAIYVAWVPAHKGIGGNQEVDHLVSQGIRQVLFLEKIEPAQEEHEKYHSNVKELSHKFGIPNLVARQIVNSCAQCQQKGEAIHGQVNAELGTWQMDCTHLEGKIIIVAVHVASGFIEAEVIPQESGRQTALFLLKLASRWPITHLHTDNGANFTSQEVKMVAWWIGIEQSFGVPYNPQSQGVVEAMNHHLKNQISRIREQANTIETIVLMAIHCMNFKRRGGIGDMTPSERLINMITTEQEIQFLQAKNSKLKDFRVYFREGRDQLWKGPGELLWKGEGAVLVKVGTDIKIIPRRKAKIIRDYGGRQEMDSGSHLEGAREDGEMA
Calls of active or inactive are those of the source. How the calls were made is not given here.
MEASUREMENT_NAME: IC50

> print(dat)
                                   molecule  readout.value
1  Cc1ccccc1-n1c(O)c(C=C2C=CC=N2)c(=O)[nH]c1=S       inactive
2  C=C/C(C)=C/C[C@]1(C)[C@H](C)CC[C@@]23C(=C[C@H](OC(=O)c4ccc(O)c(OC)c4)C[C@@H]12)[C@@H](OC(C)=O)O[C@H]3OC(C)=O       inactive
3    O=C(Oc1ccccc1)Oc1c(Cl)cc2oc(=O)sc2c1Cl         6.3 µM

---

target: Gag-Pol polyprotein (Human immunodeficiency virus type 2 subtype A (isolate ROD)) (UniProt P04584); assay: Ribonuclease H inhibitors of HIV-2 reverse transcriptase, biochemical dose response (AID 367); conditions: HIV-2 RNase H, FRET RNA/DNA substrate cleavage
Calls of active or inactive are those of the source. How the calls were made is not given here.
Permitted responses: active, inactive

See these solved cases before continuing.
> print(dat)
                                   molecule  category
1  COC(=O)c1cc2c3c(ccc2[nH]1)N(C(=O)c1cc2c4c(ccc2[nH]1)N(C(=O)c1cc2c5c(ccc2[nH]1)N(C(N)=O)CC5)CC4)CC3    active
2  O=S(=O)(Nc1cccc(C(F)(F)F)c1)c1ccc2ccccc2c1  inactive

Now for another entry.
// outcome(item) with item = CC(C)=CCC1=C(O)[C@@](O)(CC=C(C)C)C(=O)C(C(=O)CC(C)C)=C1O active

---

biological target: Gag-Pol polyprotein (Human immunodeficiency virus type 2 subtype A (isolate ROD)); test: Ribonuclease H inhibitors of HIV-2 reverse transcriptase, biochemical dose response (AID 367); conditions: HIV-2 RNase H, FRET RNA/DNA substrate cleavage
Activity calls are given as the source filed them. How the calls were made is not given here.
Permitted responses: label 1 (active), label 0 (inactive)

See these solved cases before continuing.
> print(dat)
                                   compound  category
1                  CC(C)c1ccc(O)c(O)c(=O)c1   label 1
2  C=CCN1C(=O)/C(=C\c2ccc([N+](=O)[O-])o2)C(=O)NC1=S   label 0
3  O=C(O)CCc1c2ccc(=O)c(O)c-2oc2c(O)c(O)ccc12   label 1

// outcome(item) with item = O=C(Nc1ccc(N2CCN(C(=O)c3ccccc3)CC2)cc1)c1ccc(-c2ccccc2)cc1 label 1

// outcome(item) with item = O=C1C(Cl)=C(Nc2ccc(S(=O)(=O)Nc3ccccn3)cc2)C(=O)c2ccccc21 label 1

// outcome(item) with item = CCOc1ccc(N2C(=O)/C(=C/c3ccc(Br)o3)C(=O)NC2=S)cc1 label 1

---

target: Gag-Pol polyprotein (Human immunodeficiency virus type 2 subtype A (isolate ROD)); test: Ribonuclease H inhibitors of HIV-2 reverse transcriptase, biochemical dose response (AID 367); conditions: HIV-2 RNase H, FRET RNA/DNA substrate cleavage
Calls of active or inactive are those of the source. How the calls were made is not given here.
Permitted responses: active, inactive

See these solved cases before continuing.
> print(dat)
                                   compound                            assayed.system  category
1            Cc1ccc(C)n1-c1ccc(SCC(=O)O)cc1  Gag-Pol polyprotein (Human immunodeficiency virus type 2 subtype A (isolate ROD))    active
2      Oc1ccc2ccccc2c1C=NCc1c(O)ccc2ccccc12  Gag-Pol polyprotein (Human immunodeficiency virus type 2 subtype A (isolate ROD))  inactive
3  Oc1cc(O)c2c(c1)OC(c1ccc(O)c(O)c1)C(OC1(c3cc(O)c(O)c(O)c3)Oc3cc(O)cc(O)c3C(O)C1O)C2 (centres undefined)  Gag-Pol polyprotein (Human immunodeficiency virus type 2 subtype A (isolate ROD))    active

// outcome(item) with item = Cc1sc(NC(=O)C2CC3CCC2C3)c(C(N)=O)c1C (centres undefined) inactive

// outcome(item) with item = O=C1CC(=O)c2ccc3c4c(ccc1c24)C(=O)CC3=O active

// outcome(item) with item = NC(=O)c1c(N)sc2c1CCCCC2 active

// outcome(item) with item = COc1ccc(NC(=O)c2c(N)sc(-c3ccccc3)c2C)cc1 active

// outcome(item) with item = O=C1NC(=S)N(c2ccccc2F)C(=O)/C1=C/c1ccc(I)o1 active

---

target: Gag-Pol polyprotein (Human immunodeficiency virus type 2 subtype A (isolate ROD)); assay: Ribonuclease H inhibitors of HIV-2 reverse transcriptase, biochemical dose response (AID 367); details: HIV-2 RNase H, FRET RNA/DNA substrate cleavage
The source made the active and inactive calls. The rule behind the calls is not given here.
Permitted responses: active, inactive

// outcome(item) with item = Cc1sc(NC(=O)C2CCCO2)c(C(N)=O)c1C (stereo not given) active

// outcome(item) with item = S=C(Nc1ccc2c(c1)Cc1ccccc1-2)Nc1ccc2c(c1)Cc1ccccc1-2 inactive

// outcome(item) with item = COc1ccc(C(=O)NC(=S)Nc2ccc3nn(-c4ccc(C)c(Cl)c4)nc3c2)cc1[N+](=O)[O-] active

// outcome(item) with item = Cc1ccc(-c2cc(C(=O)Nc3sc(C(=O)OC(C)C)c(C)c3C(N)=O)c3ccccc3n2)s1 active

// outcome(item) with item = O=C1C=C(NCCc2cc(Br)c(O)c(Br)c2)C(=O)c2ncccc21 active

// outcome(item) with item = COc1ccc(-c2nc3sc(-c4ccc(OC)cc4)nc3s2)cc1 active

// outcome(item) with item = Cc1ccc(NC(=O)c2c(NC(=O)c3ccccc3F)sc3c2CCCCC3)cc1 active

// outcome(item) with item = CC(C)=CCc1ccc(O)c(=O)cc1C(C)C inactive

// outcome(item) with item = COc1ccccc1N=C(NOCc1ccc(Cl)cc1Cl)c1nonc1N inactive

// outcome(item) with item = O=C1C=CC(=O)C(c2cc(Cl)ccc2Cl)=C1 active

// outcome(item) with item = COC(=O)c1c(N)sc(C(=O)Nc2ccc(OC)cc2)c1C active

// outcome(item) with item = c1ccc(C(c2cccc3c2ccc2ccccc23)C(c2ccccc2)c2cccc3c2ccc2ccccc23)cc1 (stereo not given) inactive

// outcome(item) with item = O=C(N/N=C/c1ccc(/C=N/NC(=O)c2ccc(O)c(O)c2)cc1)c1ccc(O)c(O)c1 active

// outcome(item) with item = Cc1ccc(S(=O)(=O)N=C2C=CC(=O)C=C2)c(C)c1 active

// outcome(item) with item = FC(F)(F)c1nc2ccc(SSc3ccc4nc(C(F)(F)F)[nH]c4c3)cc2[nH]1 active

---

biological target: Gag-Pol polyprotein (Human immunodeficiency virus type 2 subtype A (isolate ROD)); experiment: Ribonuclease H inhibitors of HIV-2 reverse transcriptase, biochemical dose response (AID 367); conditions: HIV-2 RNase H, FRET RNA/DNA substrate cleavage
Active and inactive are the calls of the source. The rule behind the calls is not given here.
Permitted responses: yes (1) = active, no (0) = inactive

> print(dat)
                                   compound                            assayed.system  category
1  N#C/C(=C\Nc1ccc(S(=O)(=O)Nc2nccs2)cc1)c1nc(-c2ccc(Cl)cc2)cs1  Gag-Pol polyprotein (Human immunodeficiency virus type 2 subtype A (isolate ROD))   yes (1)

// outcome(item) with item = O=C1/C(=C/c2ccco2)C(=O)N(c2ccc(Br)cc2)C(=S)N1c1ccccc1 no (0)

// outcome(item) with item = CCN1C(=O)/C(=C/c2ccoc2)C(=O)NC1=S no (0)

// outcome(item) with item = COC([CH2][Hg][n]1cnc2c1c(=O)n(C)c(=O)n2C)CN1C(=O)c2ccccc2S1(=O)=O (stereo unspecified) yes (1)

// outcome(item) with item = Nc1nc(Sc2ccc([N+](=O)[O-])c3nonc23)c2[nH]cnc2n1 no (0)

// outcome(item) with item = Cc1sc(NC(=O)c2ccco2)c(C(N)=O)c1C yes (1)
